These data points were gathered from patent US20260234242A1.

# subject-of-test: T1, human CDH6 on tumor cells (OVCAR3 cells, PA-1 cells) (human, UniProt P55285 54-790)
# T1 sequence: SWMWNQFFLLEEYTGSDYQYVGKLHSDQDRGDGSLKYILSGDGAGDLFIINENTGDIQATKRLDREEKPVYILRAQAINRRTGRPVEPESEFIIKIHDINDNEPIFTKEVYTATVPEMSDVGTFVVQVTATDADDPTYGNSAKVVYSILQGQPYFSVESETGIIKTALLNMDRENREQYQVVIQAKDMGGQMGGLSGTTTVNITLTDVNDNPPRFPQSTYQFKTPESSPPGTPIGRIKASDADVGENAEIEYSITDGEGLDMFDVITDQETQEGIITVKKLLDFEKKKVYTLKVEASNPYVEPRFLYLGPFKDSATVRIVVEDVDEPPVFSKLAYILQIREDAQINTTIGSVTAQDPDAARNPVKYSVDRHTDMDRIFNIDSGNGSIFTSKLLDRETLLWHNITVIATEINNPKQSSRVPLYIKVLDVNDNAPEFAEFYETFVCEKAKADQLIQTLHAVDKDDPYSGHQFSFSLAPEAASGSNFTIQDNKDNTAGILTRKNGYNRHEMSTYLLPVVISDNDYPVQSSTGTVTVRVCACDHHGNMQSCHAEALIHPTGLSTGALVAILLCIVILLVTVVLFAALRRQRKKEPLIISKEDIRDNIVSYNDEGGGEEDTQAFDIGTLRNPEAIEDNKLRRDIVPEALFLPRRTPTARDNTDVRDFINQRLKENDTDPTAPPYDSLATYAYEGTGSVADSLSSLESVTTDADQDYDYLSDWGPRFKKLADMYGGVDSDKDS
# protocol: FACS, OVCAR3 cells, 4° C. arm of endocytosis assay, antibody diluted to 10 µg/mL
result-type: MFI_4° C. (MFI)
One number for each entry, in MFI.

These solved cases illustrate the format of a correct answer.
CHI-CDH6-1 (antibody, human IgG1, kappa, V domains shown, also called CHI-hCDH6-1; CH1-CDH6-1) VH: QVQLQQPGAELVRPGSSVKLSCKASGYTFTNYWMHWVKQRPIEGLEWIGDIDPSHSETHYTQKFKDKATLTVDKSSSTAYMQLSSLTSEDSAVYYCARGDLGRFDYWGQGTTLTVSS VL: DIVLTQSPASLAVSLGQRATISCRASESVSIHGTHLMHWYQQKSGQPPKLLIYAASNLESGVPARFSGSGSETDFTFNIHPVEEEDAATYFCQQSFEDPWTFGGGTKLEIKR :: 10600
CHI-CDH6-11 (antibody, human IgG1, kappa, V domains shown, also called chimeric antibody of murine CDH6-11) VH: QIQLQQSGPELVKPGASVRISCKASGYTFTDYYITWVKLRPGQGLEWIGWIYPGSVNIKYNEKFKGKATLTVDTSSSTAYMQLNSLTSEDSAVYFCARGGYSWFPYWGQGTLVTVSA VL: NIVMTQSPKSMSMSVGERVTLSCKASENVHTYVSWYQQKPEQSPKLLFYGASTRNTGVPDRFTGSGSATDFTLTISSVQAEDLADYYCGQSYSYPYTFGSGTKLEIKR :: 10400

Next binder, MFI_4° C. to be filled in.
Value of MFI_4° C. reported for the binder CHI-CDH6-2 (antibody, human IgG1, kappa, V domains shown, also called chimeric antibody of murine CDH6-2) VH: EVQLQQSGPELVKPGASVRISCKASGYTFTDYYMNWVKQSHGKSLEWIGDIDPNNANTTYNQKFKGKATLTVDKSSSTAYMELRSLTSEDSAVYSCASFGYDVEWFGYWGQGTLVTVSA VL: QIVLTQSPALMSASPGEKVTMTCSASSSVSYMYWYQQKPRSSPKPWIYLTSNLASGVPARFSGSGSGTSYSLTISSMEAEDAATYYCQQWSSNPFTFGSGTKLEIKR is 11100
